Hey, just so you know, these numbers are from the kinase profiling compilation of Christmann-Franck et al. (2016).

In this section we review reported residual activity values for a set of compounds.
- experimental target: STK16 (human) (UniProt O75716)
- Sequence (O75716 whole entry, looked up): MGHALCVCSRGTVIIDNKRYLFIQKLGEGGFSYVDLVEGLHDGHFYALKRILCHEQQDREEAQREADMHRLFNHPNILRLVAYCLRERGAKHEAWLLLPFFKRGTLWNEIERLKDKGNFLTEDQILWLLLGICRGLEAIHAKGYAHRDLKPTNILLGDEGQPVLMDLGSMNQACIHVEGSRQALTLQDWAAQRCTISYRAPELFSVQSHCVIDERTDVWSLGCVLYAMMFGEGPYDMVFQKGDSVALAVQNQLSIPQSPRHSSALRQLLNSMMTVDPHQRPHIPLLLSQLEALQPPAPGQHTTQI
- assay procedure: radiometric filter-binding kinase assay
- study conditions: compound 0.01 µM
The reply should be a number in %, with the unit left off.

Some compounds with known residual activity results, for comparison:
compound	measurement
CNC(=O)C1[C@H]2O[C@@](C)([C@@H]1N)n1c3ccccc3c3c4c(c5c6ccccc6n2c5c31)C(=O)NC4 (some centres undefined)	102
COc1cc(O)c2c(c1)[C@H]1OC1C[C@H](O)[C@H](O)C(=O)/C=C\C[C@H](C)OC2=O (some centres undefined)	94
COc1ccc(N(C(=O)Nc2c(C)cccc2C)c2cc(Nc3ccc(N4CCN(C)CC4)cc3)ncn2)c(OC)c1	106

Next compound, residual activity to be filled in.
// query With STK16 (human) (UniProt O75716) as the test system, provide measured residual activity for this compound: O=C(Nc1nc2cc(C(F)(F)F)cc(NC3CC3)n2n1)c1cccnc1
// result 82

====

In this section we review reported residual activity values for a set of compounds.
- experimental target: MARK4 (human)
- assay procedure: radiometric filter-binding kinase assay
- study conditions: compound 10.0 µM
The reply should be a number in %, with the unit left off.

Some compounds with known residual activity results, for comparison:
compound	measured quantity	measurement
NC(=O)c1c(NC(=O)C2CC2)sc2c1CCCC2	residual activity	69
CNc1nc(-c2ccc3c(N)n[nH]c3c2)cc(N2C[C@@H](C(=O)NC3CCCCC3)CC[C@H]2C)n1	residual activity	103
NC1(c2ccc(-c3nc4ccn5c(=O)[nH]nc5c4cc3-c3ccccc3)cc2)CCC1	residual activity	92
CC(C)C[C@H](NC(=O)CNC(=O)c1cc(Cl)ccc1Cl)B1OC(=O)CC(CC(=O)O)(C(=O)O)O1 (stereo not given in full)	residual activity	86
CCCC(CCC)C(=O)O	residual activity	106
O=S(=O)(c1ccc(F)c2nonc12)N1CCN(c2ncc(C(F)(F)F)cc2Cl)CC1	residual activity	85
CN1C(=O)[C@@H](Cc2c[nH]c3ccccc23)NC1=S	residual activity	96
CCn1c(-c2nonc2N)nc2cncc(CNC3CCNCC3)c21	residual activity	81

// query Specify measured residual activity for CC1=C(CO)C(=O)O[C@@H]([C@@H](C)[C@H]2CC[C@H]3[C@@H]4C[C@H]5O[C@]56[C@@H](O)C=CC(=O)[C@]6(C)C4CC[C@]23C)C1 (stereo not given in full) .
// result 77

// query Specify measured residual activity for Oc1ccc(/C=C/c2cc(O)cc(O)c2)cc1 .
// result 99

====

- experimental target: CDK2 CCNA2 (human) (UniProt P20248+P24941)
- assay procedure: radiometric filter-binding kinase assay
- study conditions: compound 0.1 µM
measured quantity: residual activity
Answer shape: numeric part, then the unit.

1. Cc1cc(NC(=O)c2cccc(NC(=O)/C=C/CN(C)C)c2)ccc1Nc1nccc(-c2cccnc2)n1 107%
2. O=C(N[C@@H](COc1ccc2[nH]c(=O)[nH]c2c1)c1ccccc1)c1cccn(Cc2ccc(F)c(F)c2)c1=O 90%
3. Cc1ccc(-c2ccc3c(ccc4sc5c(c43)NC[C@@H](C)NC5=O)n2)cn1 111%

// query Specify measured residual activity for CNc1nc(-c2ccc3c(N)n[nH]c3c2)cc(N2C[C@@H](C(=O)NC3CCCCC3)CC[C@H]2C)n1 .
// result 101%
